Biological target: ER (Homo sapiens (Human), UniProt P03372)
Sequence (P03372 whole entry): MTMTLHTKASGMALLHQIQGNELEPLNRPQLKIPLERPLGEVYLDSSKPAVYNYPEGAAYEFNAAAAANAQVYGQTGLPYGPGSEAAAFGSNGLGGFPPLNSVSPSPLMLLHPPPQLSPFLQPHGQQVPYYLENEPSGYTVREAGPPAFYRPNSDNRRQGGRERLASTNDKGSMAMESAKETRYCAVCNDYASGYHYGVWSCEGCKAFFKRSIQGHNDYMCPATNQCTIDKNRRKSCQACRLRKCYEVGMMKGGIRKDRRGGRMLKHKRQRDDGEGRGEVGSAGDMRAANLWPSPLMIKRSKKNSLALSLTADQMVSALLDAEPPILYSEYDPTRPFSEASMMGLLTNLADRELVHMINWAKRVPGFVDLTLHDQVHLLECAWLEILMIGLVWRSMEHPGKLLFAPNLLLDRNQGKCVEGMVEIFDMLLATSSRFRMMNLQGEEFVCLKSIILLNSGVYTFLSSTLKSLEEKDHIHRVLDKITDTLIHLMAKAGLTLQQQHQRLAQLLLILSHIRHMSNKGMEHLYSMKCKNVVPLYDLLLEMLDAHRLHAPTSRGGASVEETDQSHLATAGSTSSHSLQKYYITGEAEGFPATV
Assay: In-cell western (ICW) ER degradation assay in MCF-7 cells
Format: cell-based
Conditions: ER degradation, MCF7, 16 hrs
Experimental: ERa degradative activity of compounds can be assessed in MCF-7 and T47D Cells. MCF-7 and T47D cell are seeded and are subsequently treated with the compounds at certain concentrations (e.g., 0.02 to 300 nM). DMSO can be used as vehicle control. Cells are fixed and are blocked with Intercept (PBS) Blocking Buffer (e.g., Li-COR, Odyssey Blocking Buffer), and are stained with ER (e.g., 1:500, Cell signaling) primary antibody for overnight at cold room. […]
DC50 listing for selected compounds.

Field: example entries. Status: answers known.
O=C1CC[C@@H](Nc2ccc(C3CCN(C[C@@H]4COC5(CCN(c6ccc([C@H]7c8ccc(O)cc8OC[C@H]7c7ccccc7)cc6)CC5)C4)CC3)c(F)c2)C(=O)N1 (mixture of isomers) ... < 1 nM
O=C1CC[C@@H](Nc2ccc(C3CCN(C[C@H]4COC5(CCN(c6ccc([C@H]7c8ccc(O)cc8OC[C@H]7c7ccccc7)cc6)CC5)C4)CC3)c(F)c2)C(=O)N1 (single isomer, unassigned) ... < 1 nM
O=C1CC[C@@H](N2Cc3cc4c(cc3C2=O)OC[C@@H]2CN(CC3CC5(CCN(c6ccc([C@H]7c8ccc(O)cc8OC[C@H]7c7ccccc7)cc6)CC5)C3)CCN42)C(=O)N1 ... < 1 nM
COc1cccc([C@H]2COc3cc(O)ccc3[C@H]2c2ccc(N3CCC(CN4CCN5c6ccc7c(c6OC[C@H]5C4)CN(C4CCC(=O)NC4=O)C7=O)CC3)cc2)c1 (single isomer, unassigned) ... 1 to 10 nM
O=C1CC[C@@H](Nc2ccc(C3CCN(CC4CCC5(CC4)CN(c4ccc([C@@H]6c7ccc(O)cc7OC[C@@H]6c6ccccc6)cc4)C5)CC3)cc2)C(=O)N1 (single isomer, unassigned) ... 1 to 10 nM

Okay, next one:
Tell us which DC50 value is on record for O=C1CCC(N2Cc3cc4c(cc3C2=O)OC[C@@H]2CN(CC3CCN(c5ccc([C@@H]6c7ccc(O)cc7OC[C@@H]6c6ccccc6)cc5F)CC3)CCN42)C(=O)N1 (single isomer, unassigned)
1 to 10 nM
